Item-by-item account of total protein half-life in vivo
# TEST DETAILS: total protein half-life in vivo (active degradation + dilution); higher = more stable protein
# MEASUREMENT PARAMETERS: wild type E. coli NCM3722; growth: N-lim chemostat; doubling time 6 h
Respond with the bare value in h.

RESIDUE STRING: MPLPDFRLIRLLPLAALVLTACSVTTPKGPGKSPDSPQWRQHQQDVRNLNQYQTRGAFAYISDQQKVYARFFWQQTGQDRYRLLLTNPLGSTELELNAQPGNVQLVDNKGQRYTADDAEEMIGKLTGMPIPLNSLRQWILGLPGDATDYKLDDQYRLSEITYSQNGKNWKVVYGGYDTKTQPAMPANMELTDGGQRIKLKMDNWIVK
total protein half-life in vivo (h): 6.37

What does the record list as total protein half-life in vivo for `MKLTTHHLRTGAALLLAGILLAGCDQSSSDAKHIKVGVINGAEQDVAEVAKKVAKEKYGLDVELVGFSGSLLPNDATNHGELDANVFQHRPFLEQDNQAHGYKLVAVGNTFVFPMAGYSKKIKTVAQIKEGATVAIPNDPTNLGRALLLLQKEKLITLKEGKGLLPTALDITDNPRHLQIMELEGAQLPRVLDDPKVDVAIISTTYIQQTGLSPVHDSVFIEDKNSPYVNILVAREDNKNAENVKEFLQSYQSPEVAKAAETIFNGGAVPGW` ? 5.44

Reported total protein half-life in vivo, sequence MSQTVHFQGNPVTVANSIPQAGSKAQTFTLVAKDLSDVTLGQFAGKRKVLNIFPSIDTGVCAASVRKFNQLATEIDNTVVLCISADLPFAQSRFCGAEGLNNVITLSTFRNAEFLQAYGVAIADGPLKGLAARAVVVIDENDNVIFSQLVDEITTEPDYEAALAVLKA [P0A862] : ____ 5.01

Could you share which total protein half-life in vivo value was measured for `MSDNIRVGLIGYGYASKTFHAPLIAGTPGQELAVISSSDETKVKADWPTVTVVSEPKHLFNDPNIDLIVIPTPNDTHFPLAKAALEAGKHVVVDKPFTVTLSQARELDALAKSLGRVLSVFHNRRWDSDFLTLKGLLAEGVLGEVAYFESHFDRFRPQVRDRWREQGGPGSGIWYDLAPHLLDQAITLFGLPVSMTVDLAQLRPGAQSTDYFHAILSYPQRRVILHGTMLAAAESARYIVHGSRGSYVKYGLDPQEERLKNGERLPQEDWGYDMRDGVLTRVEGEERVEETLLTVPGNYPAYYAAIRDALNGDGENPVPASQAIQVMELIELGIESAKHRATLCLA` ? 5.05

Which measured total protein half-life in vivo value corresponds to MKITVLGCGALGQLWLTALCKQGHEVQGWLRVPQPYCSVNLVETDGSIFNESLTANDPDFLATSDLLLVTLKAWQVSDAVKSLASTLPVTTPILLIHNGMGTIEELQNIQQPLLMGTTTHAARRDGNVIIHVANGITHIGPARQQDGDYSYLADILQTVLPDVAWHNNIRAELWRKLAVNCVINPLTAIWNCPNGELRHHPQEIMQICEEVAAVIEREGHHTSAEDLRDYVMQVIDATAENISSMLQDIRALRHTEIDYINGFLLRRARAHGIAVPENTRLFEMVKRKESEYERIGTGLPRPW [P0A9J4] ? 3.03

Using the record for `MAKNYYDITLALAGICQSARLVQQLAHQGHCDADALHVSLNSIIDMNPSSTLAVFGGSEANLRVGLETLLGVLNASSRQGLNAELTRYTLSLMVLERKLSSAKGALDTLGNRINGLQRQLEHFDLQSETLMSAMAAIYVDVISPLGPRIQVTGSPAVLQSPQVQAKVRATLLAGIRAAVLWHQVGGGRLQLMFSRNRLTTQAKQILAHLTPEL` , report its total protein half-life in vivo. 5.45

This collection of values is drawn from the supplement of paper PMC11246515.
